Reported IC50 is given for each of the following molecules.
# testSystem: MTB InhA (Mycobacterium tuberculosis, UniProt P9WGR1)
# Sequence (P9WGR1 whole entry, looked up): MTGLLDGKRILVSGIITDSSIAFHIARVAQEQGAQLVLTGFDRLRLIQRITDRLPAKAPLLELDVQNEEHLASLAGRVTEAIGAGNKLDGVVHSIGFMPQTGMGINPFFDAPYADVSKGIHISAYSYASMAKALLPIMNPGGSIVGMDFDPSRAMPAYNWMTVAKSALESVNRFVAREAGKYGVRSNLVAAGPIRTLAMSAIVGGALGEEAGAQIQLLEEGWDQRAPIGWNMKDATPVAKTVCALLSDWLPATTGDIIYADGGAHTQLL
# assayName: InhA inhibition endpoint assay
# Type: biochemical
# experimentalContext: read-out: IC50 against InhA
The reply should contain only the number, in nM.

>>> quantitativereadout("Cc1c(-c2cc(C(=O)O)c3ccccc3n2)nnn1-c1ccc(Br)cc1")
4130
>>> quantitativereadout("Cc1c(-c2cc(C(=O)O)c3cc(Cl)ccc3n2)nnn1-c1ccc(Cl)cc1")
720
>>> quantitativereadout("Cc1c(-c2cc(C(=O)O)c3cc(Cl)ccc3n2)nnn1-c1ccccc1")
11800

Next molecule, IC50 to be filled in.
For MTB InhA (Mycobacterium tuberculosis, UniProt P9WGR1), give IC50 of the listed molecule: NNC(=O)c1ccncc1 [INH, isoniazid, reference compound]
240
